- ASSAY NOTES: ORAC (oxygen radical absorbance capacity) assay
- Format: biochemical
- CONDITION INFO: dark, 10 μM compound, Trolox equivalent

{"MOLECULE": "C=Cc1c(C)c2cc3nc(c(CC(=O)OC)c4[nH]c(cc5nc(cc1[nH]2)C(C)=C5CC)c(C)c4C(=O)NCCCNC(=O)CCCC(=O)Oc1ccc(/C=C/C(=O)CC(=O)/C=C/c2ccc(O)c(OC)c2)cc1OC)C(CCC(=O)OC)C3C (stereo not shown) [Ce6-propane-curcumin]", "ORAC Dark Condition (TE, μM) / µM": 26.83}
{"MOLECULE": "C=Cc1c(C)c2cc3nc(c(CC(=O)O)c4[nH]c(cc5nc(cc1[nH]2)C(C)=C5CC)c(C)c4C(=O)O)[C@@H](CCC(=O)O)[C@@H]3C [Ce6, Chlorin e6]", "ORAC Dark Condition (TE, μM) / µM": 47.72}
{"MOLECULE": "C=Cc1c(C)c2cc3nc(c(CC(=O)OC)c4[nH]c(cc5nc(cc1[nH]2)C(C)=C5CC)c(C)c4C(=O)NCCCOCCOCCOCCCNC(=O)CCCC(=O)Oc1ccc(/C=C/C(=O)CC(=O)/C=C/c2ccc(O)c(OC)c2)cc1OC)C(CCC(=O)OC)C3C (stereo not shown) [Ce6-diPEG-curcumin]", "ORAC Dark Condition (TE, μM) / µM": 30.32}

Where do these numbers come from? They come from paper PMC10487708.
